- TARGET DESC: PRMT5 (Homo sapiens)
- Construct: purchased Viva (custom protein)
- EXPERIMENT NOTES: PRMT5 IC50 assay in the presence of MTA as cofactor
- Format: biochemical
- CONDITION LABEL: PRMT5, MTA as cofactor
Quick list: IC50 per entry.
ASSAY ENDPOINT: IC50

1) Cc1ncoc1COc1ccc2c(c1)CCN(C[C@@H](O)CNC(=O)c1ccnc(Nc3cccnc3)c1)C2 :: 0.05 to 0.5 µM
2) Cc1c(OCc2cnco2)ccc2c1CCN(C[C@@H](O)CNC(=O)c1cc(NC3CCCC3)ncn1)C2 :: 0.5 to 5 µM
3) CC(C)CC(=O)N1CCC(Nc2cc(C(=O)NC[C@H](O)CN3CCc4c(ccc(OCc5cnco5)c4Cl)C3)ccn2)CC1 :: 0.05 to 0.5 µM
4) CC(=O)N1CC(Nc2cc(C(=O)NC[C@H](O)CN3CCc4cc(OCc5ocnc5C)c(F)cc4C3)nc(N3CCCCC3)n2)C1 :: 0.05 to 0.5 µM
5) O=C(NC[C@H](O)CN1CCc2c(ccc(OCc3cnco3)c2Cl)C1)c1ccnc(NC2CC(F)(F)C2)c1 :: 0.05 to 0.5 µM
6) O=C(NC[C@H](O)CN1CCc2c(ccc(OCc3cnco3)c2Cl)C1)c1ccnc(NC2CCCCC2)c1 :: 0.05 to 0.5 µM
7) Cc1ncoc1COc1ccc2c(c1Br)CCN(C[C@@H](O)CNC(=O)c1cc(NC3CCCC3)ncn1)C2 :: 0.5 to 5 µM
8) O=C(NC[C@H](O)CN1CCc2c(ccc(OCc3cnco3)c2Cl)C1)c1cncc(NC2CCOC2)c1 (some centres unmarked) :: 0.5 to 5 µM
9) Cc1ncoc1COc1ccc2c(c1Br)CCN(C[C@@H](O)CNC(=O)c1cc(NC3CCC3)ncn1)C2 :: 0.5 to 5 µM
10) CC(=O)N1CC(Nc2cc(C(=O)NC[C@H](O)CN3CCc4cc(OCc5ocnc5C)ccc4C3)nc(C(C)(C)C)n2)C1 :: 0.05 to 0.5 µM
11) CC(=O)N1CCC(Nc2cc(C(=O)NC[C@H](O)CN3CCc4cc(OCc5ocnc5C)ccc4C3)cc(N3CCN(C)CC3)n2)CC1 :: 0.05 to 0.5 µM
12) CCN(C)c1cc(C(=O)NC[C@H](O)CN2CCc3c(ccc(OCc4cnco4)c3Cl)C2)cc(NC2CCC2)n1 :: 0.05 to 0.5 µM
13) O=C(NC[C@H](O)CN1CCc2c(ccc(OCc3cnco3)c2I)C1)c1ccnc(NC2CCC2)c1 :: 0.5 to 5 µM
14) Cc1ncoc1COc1ccc2c(c1)CCN(C[C@@H](O)CNC(=O)c1cc(CC(C)C)nc(NC3CCC3)c1)C2 :: 0.05 to 0.5 µM

----------
- TARGET DESC: PRMT5 (Homo sapiens, UniProt O14744)
- Construct: purchased Viva (custom protein)
- Sequence (O14744 whole entry): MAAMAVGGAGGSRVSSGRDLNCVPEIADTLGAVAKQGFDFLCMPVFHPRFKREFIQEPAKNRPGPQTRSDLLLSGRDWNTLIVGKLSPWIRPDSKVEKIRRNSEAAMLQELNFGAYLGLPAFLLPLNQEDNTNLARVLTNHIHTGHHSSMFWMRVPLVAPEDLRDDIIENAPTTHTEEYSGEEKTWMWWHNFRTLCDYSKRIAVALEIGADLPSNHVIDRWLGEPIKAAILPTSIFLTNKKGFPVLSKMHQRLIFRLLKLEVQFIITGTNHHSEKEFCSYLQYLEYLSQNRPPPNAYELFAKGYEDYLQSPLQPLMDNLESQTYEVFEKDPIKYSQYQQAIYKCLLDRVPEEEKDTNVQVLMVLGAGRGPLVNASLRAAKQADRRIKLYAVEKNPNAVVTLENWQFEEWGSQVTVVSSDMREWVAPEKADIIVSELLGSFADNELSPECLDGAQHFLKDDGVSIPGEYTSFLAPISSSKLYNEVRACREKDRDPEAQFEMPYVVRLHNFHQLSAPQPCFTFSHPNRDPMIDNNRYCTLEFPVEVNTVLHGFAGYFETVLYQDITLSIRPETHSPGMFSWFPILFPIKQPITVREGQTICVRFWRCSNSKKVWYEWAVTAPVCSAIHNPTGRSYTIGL
- Sequence (Q9BQA1 whole entry partner): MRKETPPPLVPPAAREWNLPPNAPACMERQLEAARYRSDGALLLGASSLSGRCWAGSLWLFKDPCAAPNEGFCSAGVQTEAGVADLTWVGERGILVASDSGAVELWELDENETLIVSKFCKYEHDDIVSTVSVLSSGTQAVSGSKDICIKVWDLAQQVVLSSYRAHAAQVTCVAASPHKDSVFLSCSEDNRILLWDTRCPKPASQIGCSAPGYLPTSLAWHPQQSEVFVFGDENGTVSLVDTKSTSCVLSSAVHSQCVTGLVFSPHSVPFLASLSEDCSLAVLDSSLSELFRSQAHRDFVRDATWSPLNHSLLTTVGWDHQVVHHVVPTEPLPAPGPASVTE
- EXPERIMENT NOTES: PRMT5 IC50 assay in the presence of MTA as cofactor
- Assay type: biochemical
- CONDITION LABEL: PRMT5, MTA as cofactor
Quick list: IC50 per entry.
ASSAY ENDPOINT: IC50

1. Cc1ncoc1COc1ccc2c(c1Br)CCN(C[C@@H](O)CNC(=O)c1ccnc(NC3CCC3)c1)C2 :: 0.05 to 0.5 µM
2. Cc1ncoc1COc1ccc2c(c1C)CCN(C[C@@H](O)CNC(=O)c1cc(NC3COC3)nc(N3CCOCC3)n1)C2 :: 0.05 to 0.5 µM
3. Cn1nccc1COc1ccc2c(c1Cl)CCN(C[C@@H](O)CNC(=O)c1ccnc(NC3CCCC3)c1)C2 :: 0.5 to 5 µM
4. CCN(C)c1nc(NC2COC2)cc(C(=O)NC[C@H](O)CN2CCc3c(ccc(OCc4ocnc4C)c3C)C2)n1 :: 0.05 to 0.5 µM

These entries and their values trace back to patent US11986471B2.
